protocolText: Oral bioavailability in Sprague-Dawley rat at 10 mg/kg measured up to 24 hrs
Format: ADME, organism-based
conditionSet: in vivo
experimentalReadout: bioavailability (%)
All answers are understood in %, so give the number only.

So what's the measured bioavailability for this one? O=C(/C=C/c1ccc(CNCCCN2c3ccccc3CCc3ccc(Cl)cc32)cc1)NO
1.8

###

measuredTarget: UniProtKB Q13547
Sequence (Q13547 whole entry, the tested form may be a part): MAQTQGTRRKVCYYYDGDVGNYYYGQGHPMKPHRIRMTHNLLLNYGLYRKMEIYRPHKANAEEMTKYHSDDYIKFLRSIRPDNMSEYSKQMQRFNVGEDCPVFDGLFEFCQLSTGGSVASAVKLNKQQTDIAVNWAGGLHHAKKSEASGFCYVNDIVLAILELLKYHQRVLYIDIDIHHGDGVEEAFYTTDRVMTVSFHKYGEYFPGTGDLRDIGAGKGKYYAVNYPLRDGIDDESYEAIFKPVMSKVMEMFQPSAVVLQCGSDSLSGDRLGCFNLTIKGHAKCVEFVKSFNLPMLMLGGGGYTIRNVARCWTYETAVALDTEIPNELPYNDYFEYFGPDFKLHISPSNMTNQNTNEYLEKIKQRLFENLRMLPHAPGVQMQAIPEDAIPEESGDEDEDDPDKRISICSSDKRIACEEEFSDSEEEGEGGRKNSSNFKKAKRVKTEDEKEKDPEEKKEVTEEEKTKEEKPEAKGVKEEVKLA
protocolText: Inhibition of recombinant full length human C-terminal FLAG/His-tagged HDAC1 (1 to 482 residues) expressed in baculovirus infected Sf21 cells using RHK-K(Ac)-AMC as substrate measured after 60 mins by fluorimetric assay
conditionSet: read-out: IC50
experimentalReadout: IC50 (µM)
All answers are understood in µM, so give the number only.

Previously resolved entries follow.
O=C(CCCC(=O)NCCCN1c2ccccc2CCc2ccc(Cl)cc21)NO	5.1
O=C(CCCCC(=O)NCCCN1c2ccccc2CCc2ccc(Cl)cc21)NO	6.8
O=C(/C=C/c1ccc(CNCCCN2c3ccccc3CCc3ccc(Cl)cc32)cc1)NO	3.82
O=C(CCCCCC(=O)NCCCN1c2ccccc2CCc2ccc(Cl)cc21)NO	2.14
O=C(NO)c1ccc(C(=O)NCCCN2c3ccccc3CCc3ccc(Cl)cc32)cc1	7.28

So what's the measured IC50 for this one? O=C(/C=C/c1cccc(S(=O)(=O)NCCCN2c3ccccc3CCc3ccc(Cl)cc32)c1)NO
6.05

So what's the measured IC50 for this one? O=C(CCCCCCCCC(=O)NCCCN1c2ccccc2CCc2ccc(Cl)cc21)NO
5.45

So what's the measured IC50 for this one? O=C(CCCCCCCC(=O)NCCCN1c2ccccc2CCc2ccc(Cl)cc21)NO
3.4

###

Measured IC50 accompanies every entry in the list below.
measuredTarget: Protein deacetylase HDAC6 (Homo sapiens)
protocolText: Inhibition of recombinant human N-terminal GST-tagged HDAC6 (1 to 1215 residues) expressed in baculovirus infected insect cells using RHK-K(Ac)-AMC as substrate after 90 mins by fluorimetry analysis
All answers are understood in nM, so give the number only.

O=C(CCCC(=O)NCCCN1c2ccccc2CCc2ccc(Cl)cc21)NO	1440
O=C(CCCCCCCC(=O)NCCCN1c2ccccc2CCc2ccc(Cl)cc21)NO	144
O=C(/C=C/c1ccc(CNCCCN2c3ccccc3CCc3ccc(Cl)cc32)cc1)NO	1270
O=C(NO)c1ccc(CNCCCN2c3ccccc3CCc3ccc(Cl)cc32)cc1	2610
O=C(CCCCC(=O)NCCCN1c2ccccc2CCc2ccc(Cl)cc21)NO	2070

So what's the measured IC50 for this one? O=C(NO)c1ccc(C(=O)NCCCN2c3ccccc3CCc3ccc(Cl)cc32)cc1
448

So what's the measured IC50 for this one? O=C(CCCCCCC(=O)NCCCN1c2ccccc2CCc2ccc(Cl)cc21)NO
658

###

measuredTarget: Protein deacetylase HDAC6 (Homo sapiens, UniProt Q9UBN7)
Sequence (Q9UBN7 whole entry): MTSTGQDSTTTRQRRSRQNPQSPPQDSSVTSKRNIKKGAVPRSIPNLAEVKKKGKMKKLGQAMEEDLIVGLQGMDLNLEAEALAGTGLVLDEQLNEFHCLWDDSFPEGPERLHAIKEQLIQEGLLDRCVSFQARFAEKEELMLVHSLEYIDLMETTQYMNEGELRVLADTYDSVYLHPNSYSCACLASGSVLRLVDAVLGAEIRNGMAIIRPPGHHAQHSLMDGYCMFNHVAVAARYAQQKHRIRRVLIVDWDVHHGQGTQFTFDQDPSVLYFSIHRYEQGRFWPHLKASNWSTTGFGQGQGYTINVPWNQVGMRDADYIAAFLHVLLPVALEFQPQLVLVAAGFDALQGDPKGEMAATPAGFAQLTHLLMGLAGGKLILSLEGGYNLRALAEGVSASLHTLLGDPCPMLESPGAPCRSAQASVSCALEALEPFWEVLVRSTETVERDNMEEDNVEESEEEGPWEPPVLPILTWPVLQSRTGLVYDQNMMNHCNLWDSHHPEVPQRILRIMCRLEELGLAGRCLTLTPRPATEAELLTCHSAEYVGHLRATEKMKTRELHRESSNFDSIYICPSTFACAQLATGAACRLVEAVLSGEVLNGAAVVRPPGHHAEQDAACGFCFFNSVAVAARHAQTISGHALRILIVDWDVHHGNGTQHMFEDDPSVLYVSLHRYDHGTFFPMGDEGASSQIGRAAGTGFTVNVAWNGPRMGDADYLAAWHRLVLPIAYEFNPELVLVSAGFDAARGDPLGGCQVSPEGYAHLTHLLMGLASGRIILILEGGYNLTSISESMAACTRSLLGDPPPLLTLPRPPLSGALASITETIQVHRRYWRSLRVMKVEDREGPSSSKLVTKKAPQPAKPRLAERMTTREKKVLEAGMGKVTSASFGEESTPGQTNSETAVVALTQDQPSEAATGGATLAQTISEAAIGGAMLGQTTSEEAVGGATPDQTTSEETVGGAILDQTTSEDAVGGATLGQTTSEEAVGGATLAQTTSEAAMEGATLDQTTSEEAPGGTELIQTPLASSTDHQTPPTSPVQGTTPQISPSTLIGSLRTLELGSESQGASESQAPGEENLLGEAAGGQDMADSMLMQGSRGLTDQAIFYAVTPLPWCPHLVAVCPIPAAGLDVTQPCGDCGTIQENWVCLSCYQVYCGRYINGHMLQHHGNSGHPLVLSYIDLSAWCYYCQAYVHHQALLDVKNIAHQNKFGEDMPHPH
protocolText: Inhibition of recombinant human N-terminal GST-tagged HDAC6 (1 to 1215 residues) expressed in baculovirus infected insect cells using RHK-K(Ac)-AMC as substrate after 90 mins by fluorimetry analysis
experimentalReadout: IC50 (nM)
All answers are understood in nM, so give the number only.

Previously resolved entries follow.
O=C(/C=C/c1ccc(S(=O)(=O)NCCCN2c3ccccc3CCc3ccc(Cl)cc32)cc1)NO	762
O=C(CCCCCC(=O)NCCCN1c2ccccc2CCc2ccc(Cl)cc21)NO	61.6
O=C(CCCCCCCCC(=O)NCCCN1c2ccccc2CCc2ccc(Cl)cc21)NO	142

So what's the measured IC50 for this one? O=C(/C=C/c1cccc(S(=O)(=O)NCCCN2c3ccccc3CCc3ccc(Cl)cc32)c1)NO
821

###

protocolText: Cmax in Sprague-Dawley rat at 10 mg/kg, po measured up to 24 hrs
Type: ADME, organism-based
Set-up: dose 10 mg/kg, route oral
conditionSet: in vivo
experimentalReadout: Cmax (ng/mL)
All answers are understood in ng/mL, so give the number only.

So what's the measured Cmax for this one? O=C(/C=C/c1ccc(CNCCCN2c3ccccc3CCc3ccc(Cl)cc32)cc1)NO
8.9

###

protocolText: Aqueous solubility of compound in water incubated at 37 degree C by LC-MS analysis
Type: physicochemical
experimentalReadout: solubility

So what's the measured solubility for this one? O=C(/C=C/c1ccc(CNCCCN2c3ccccc3CCc3ccc(Cl)cc32)cc1)NO
< 1 µg/mL

###

protocolText: Half life in Sprague-Dawley rat at 10 mg/kg, po measured up to 24 hrs
Assay type: ADME, organism-based
conditionSet: in vivo
experimentalReadout: half-life (h)
All answers are understood in h, so give the number only.

So what's the measured half-life for this one? O=C(/C=C/c1ccc(CNCCCN2c3ccccc3CCc3ccc(Cl)cc32)cc1)NO
10.9

###

measuredTarget: UniProtKB Q92769
Sequence (Q92769 whole entry, the tested form may be a part): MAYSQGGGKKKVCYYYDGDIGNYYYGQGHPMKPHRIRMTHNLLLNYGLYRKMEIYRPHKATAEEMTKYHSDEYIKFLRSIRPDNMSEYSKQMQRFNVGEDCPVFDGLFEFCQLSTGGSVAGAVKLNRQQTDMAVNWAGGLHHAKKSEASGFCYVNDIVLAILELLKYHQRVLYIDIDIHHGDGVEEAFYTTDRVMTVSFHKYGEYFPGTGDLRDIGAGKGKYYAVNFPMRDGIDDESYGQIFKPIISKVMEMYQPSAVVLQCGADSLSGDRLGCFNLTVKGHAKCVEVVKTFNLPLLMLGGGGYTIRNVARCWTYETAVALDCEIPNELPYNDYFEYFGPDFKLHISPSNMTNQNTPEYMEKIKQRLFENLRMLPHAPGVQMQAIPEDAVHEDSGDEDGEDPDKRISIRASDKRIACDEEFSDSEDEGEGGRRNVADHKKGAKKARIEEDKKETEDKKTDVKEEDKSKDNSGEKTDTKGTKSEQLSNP
protocolText: Inhibition of recombinant human C-terminal GST-tagged HDAC2 (1 to 488 residues) expressed in baculovirus infected sf21 cells using RHK-K(Ac)-AMC as substrate after 60 mins by fluorimetry assay
conditionSet: read-out: IC50
Measured IC50 accompanies every entry in the list below.
All answers are understood in µM, so give the number only.

Record O=C(CCCCCCCCC(=O)NCCCN1c2ccccc2CCc2ccc(Cl)cc21)NO : what is its IC50 with UniProtKB Q92769?
3.03

###

protocolText: Half life in Sprague-Dawley rat at 2 mg/kg, iv measured up to 24 hrs
Type: ADME, organism-based
conditionSet: in vivo
experimentalReadout: half-life
Put your answer as a value accompanied by its unit after it.

So what's the measured half-life for this one? O=C(/C=C/c1ccc(CNCCCN2c3ccccc3CCc3ccc(Cl)cc32)cc1)NO
17.2 h

###

protocolText: Clearance in Sprague-Dawley rat at 2 mg/kg, iv measured up to 24 hrs
Format: ADME, organism-based
conditionSet: in vivo
experimentalReadout: clearance (L/h/kg)
All answers are understood in L/h/kg, so give the number only.

So what's the measured clearance for this one? O=C(/C=C/c1ccc(CNCCCN2c3ccccc3CCc3ccc(Cl)cc32)cc1)NO
1.28

###

measuredTarget: Histone deacetylase 5 (Homo sapiens, UniProt Q9UQL6)
Sequence (Q9UQL6 whole entry, the tested form may be a part): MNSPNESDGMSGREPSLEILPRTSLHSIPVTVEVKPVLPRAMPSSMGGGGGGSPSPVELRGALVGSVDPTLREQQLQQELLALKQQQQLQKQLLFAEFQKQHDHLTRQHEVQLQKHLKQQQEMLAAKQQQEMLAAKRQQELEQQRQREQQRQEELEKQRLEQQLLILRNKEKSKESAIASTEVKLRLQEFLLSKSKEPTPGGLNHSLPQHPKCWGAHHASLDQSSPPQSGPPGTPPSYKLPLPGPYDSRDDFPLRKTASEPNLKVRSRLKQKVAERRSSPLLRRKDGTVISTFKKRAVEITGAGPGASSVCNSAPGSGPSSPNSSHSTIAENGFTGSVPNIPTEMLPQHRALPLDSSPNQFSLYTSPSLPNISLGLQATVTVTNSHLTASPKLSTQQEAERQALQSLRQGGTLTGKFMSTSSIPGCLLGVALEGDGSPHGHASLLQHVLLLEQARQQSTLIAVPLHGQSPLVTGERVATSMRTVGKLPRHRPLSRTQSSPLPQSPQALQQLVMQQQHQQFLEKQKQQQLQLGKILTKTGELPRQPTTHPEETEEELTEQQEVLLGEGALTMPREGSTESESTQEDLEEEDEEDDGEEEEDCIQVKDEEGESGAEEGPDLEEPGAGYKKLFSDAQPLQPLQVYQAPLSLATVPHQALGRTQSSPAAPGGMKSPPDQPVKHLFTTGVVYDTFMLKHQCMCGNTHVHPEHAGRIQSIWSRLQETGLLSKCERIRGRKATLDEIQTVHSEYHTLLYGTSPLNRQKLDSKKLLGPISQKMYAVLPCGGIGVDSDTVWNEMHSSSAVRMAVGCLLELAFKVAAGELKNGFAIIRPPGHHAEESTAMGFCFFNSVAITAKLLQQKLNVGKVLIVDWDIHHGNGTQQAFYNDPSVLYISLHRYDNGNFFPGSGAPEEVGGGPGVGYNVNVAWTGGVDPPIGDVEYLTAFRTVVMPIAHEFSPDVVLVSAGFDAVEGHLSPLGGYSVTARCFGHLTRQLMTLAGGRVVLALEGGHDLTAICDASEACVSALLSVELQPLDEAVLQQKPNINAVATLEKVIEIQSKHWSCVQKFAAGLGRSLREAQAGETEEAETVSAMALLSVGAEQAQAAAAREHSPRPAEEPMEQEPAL
protocolText: Inhibition of recombinant human C-terminal His-tagged HDAC5 (657 to 1123 residues) expressed in baculovirus infected insect cells using Boc-K(Ac)-AMC as substrate after 60 mins by fluorimetry analysis
experimentalReadout: IC50 (µM)
All answers are understood in µM, so give the number only.

So what's the measured IC50 for this one? O=C(/C=C/c1ccc(CNCCCN2c3ccccc3CCc3ccc(Cl)cc32)cc1)NO
6.27
